// data source = ChEMBL document CHEMBL2218924

- TEST_TARGET: AMP-activated protein kinase (AMPK) alpha-1/beta-1/gamma-1 (Homo sapiens) (UniProt P54619+Q9Y478+Q13131)
- Sequence (P54619 whole entry): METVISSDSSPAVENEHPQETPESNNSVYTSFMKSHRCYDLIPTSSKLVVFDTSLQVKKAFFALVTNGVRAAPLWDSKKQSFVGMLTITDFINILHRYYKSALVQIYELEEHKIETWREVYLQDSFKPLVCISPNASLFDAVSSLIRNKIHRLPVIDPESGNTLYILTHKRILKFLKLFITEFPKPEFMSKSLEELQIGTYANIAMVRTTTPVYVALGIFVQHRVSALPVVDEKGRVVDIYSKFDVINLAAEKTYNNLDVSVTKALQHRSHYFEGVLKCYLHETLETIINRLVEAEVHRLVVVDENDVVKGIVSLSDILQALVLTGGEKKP
- Sequence (Q13131 whole entry partner): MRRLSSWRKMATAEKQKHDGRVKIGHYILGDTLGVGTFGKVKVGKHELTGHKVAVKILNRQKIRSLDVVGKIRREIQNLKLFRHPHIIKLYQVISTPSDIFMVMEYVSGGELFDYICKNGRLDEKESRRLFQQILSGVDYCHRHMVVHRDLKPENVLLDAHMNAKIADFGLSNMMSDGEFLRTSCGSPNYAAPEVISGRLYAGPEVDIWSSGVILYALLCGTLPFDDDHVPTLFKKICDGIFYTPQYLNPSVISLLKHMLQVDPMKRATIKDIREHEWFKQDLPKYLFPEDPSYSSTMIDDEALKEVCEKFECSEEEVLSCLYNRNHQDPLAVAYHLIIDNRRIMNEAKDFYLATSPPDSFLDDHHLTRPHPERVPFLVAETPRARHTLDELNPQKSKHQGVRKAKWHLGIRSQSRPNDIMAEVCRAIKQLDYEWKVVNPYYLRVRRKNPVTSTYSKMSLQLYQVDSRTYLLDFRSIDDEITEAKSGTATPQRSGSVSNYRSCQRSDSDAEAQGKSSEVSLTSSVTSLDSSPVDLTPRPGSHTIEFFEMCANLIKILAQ
- Sequence (Q9Y478 2-270 partner limits assumed): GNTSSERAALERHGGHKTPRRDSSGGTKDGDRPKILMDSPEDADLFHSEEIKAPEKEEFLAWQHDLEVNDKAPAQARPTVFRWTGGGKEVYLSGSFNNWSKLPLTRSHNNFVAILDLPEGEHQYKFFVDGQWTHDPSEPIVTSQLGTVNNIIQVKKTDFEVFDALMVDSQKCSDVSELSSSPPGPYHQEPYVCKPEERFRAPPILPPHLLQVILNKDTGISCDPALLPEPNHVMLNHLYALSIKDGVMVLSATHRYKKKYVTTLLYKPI
- MEASUREMENT_PARAMETERS: at 10 µM

# CHEM_SMILES, residual activity
records = [
    ("CC(=O)c1ccc(N2CCOCC2)cc1O", "90%"),
    ("O=c1c2ccccc2[nH]c(=S)n1CCN1CCC(=C(c2ccc(F)cc2)c2ccc(F)cc2)CC1", "84%"),
    ("Nc1cccc(-c2cc3c(Oc4cccc(O)c4)ncnc3[nH]2)c1", "13%"),
    ("N#Cc1cnc2cnc(NCc3cccnc3)cc2c1Nc1ccc(F)c(Cl)c1", "-1%"),
    ("COc1ccc(S(=O)(=O)N(CCO)c2ccccc2CN(C)C/C=C/c2ccc(Cl)cc2)cc1", "76%"),
    ("Oc1ccc(-c2nc(-c3ccc(F)cc3)c(-c3ccncc3)[nH]2)cc1", "86%"),
    ("COc1cccc(-c2cc(=O)c3ccccc3o2)c1N", "96%"),
    ("Cc1cccc(-c2[nH]c(C(C)(C)C)nc2-c2ccc3c(c2)OCO3)n1", "83%"),
    ("COc1cc2ncnc(Nc3ccc(NC(=O)c4ccccc4)cc3)c2cc1OC", "90%"),
    ("Cn1cnc2cc3c(Nc4cccc(Br)c4)ncnc3cc21", "69%"),
    ("COc1cc2ncc(-c3ccccc3)nc2cc1OC", "82%"),
    ("CC#CC(=O)Nc1cc2c(Nc3ccc(F)c(Cl)c3)ncnc2cn1", "84%"),
    ("O=Nc1c(-c2c(O)[nH]c3ccccc23)[nH]c2ccccc12", "0%"),
    ("c1ccc(-c2n[nH]c3c2oc2ccccc23)cc1", "49%"),
    ("COc1ccc(OC)c2c(=S)c3ccccc3[nH]c12", "81%"),
    ("Oc1ccc(Nc2nc(-c3ccc(Cl)cc3)cs2)cc1", "90%"),
    ("Cn1nc2c3c(cccc31)C(=O)c1ccccc1-2", "73%"),
    ("O=C1NC(=O)/C(=C\\c2ccc3nccnc3c2)S1", "45%"),
    ("Cn1cc(/C=C2\\C(=O)Nc3ccc(S(N)(=O)=O)cc32)c2ccccc21", "4%"),
    ("O=C(Nc1cccc(Nc2cc(Nc3cccc(C(F)(F)F)c3)ncn2)c1)C1CC1", "73%"),
    ("COc1ccc(CNc2nc(N(CCO)CCO)nc3c2ncn3C(C)C)cc1", "80%"),
    ("c1ccc(-c2n[nH]cc2-c2ccnc3ccccc23)nc1", "76%"),
    ("O=C1Nc2cc(Br)ccc2/C1=C1/Nc2ccccc2/C1=N\\O", "10%"),
]

====

- TEST_TARGET: Casein kinase II (Homo sapiens) (UniProt P67870+P68400+P19784);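 also: residual kinase activity expressed relative to control, in HEPES buffer at pH 7.6 with NaCl, EDTA, DTT and Triton X-100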
- Sequence (P19784 whole entry, looked up): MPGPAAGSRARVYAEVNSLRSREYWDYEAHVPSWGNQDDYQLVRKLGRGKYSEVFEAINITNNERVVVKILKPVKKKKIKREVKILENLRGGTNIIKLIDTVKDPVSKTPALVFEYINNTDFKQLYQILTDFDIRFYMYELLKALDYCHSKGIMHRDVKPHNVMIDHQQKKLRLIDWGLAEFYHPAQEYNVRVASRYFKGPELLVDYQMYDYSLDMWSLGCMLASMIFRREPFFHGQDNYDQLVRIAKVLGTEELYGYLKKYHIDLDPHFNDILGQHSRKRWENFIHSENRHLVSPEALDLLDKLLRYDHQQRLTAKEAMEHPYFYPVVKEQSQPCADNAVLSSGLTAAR
- Sequence (P67870 whole entry, looked up): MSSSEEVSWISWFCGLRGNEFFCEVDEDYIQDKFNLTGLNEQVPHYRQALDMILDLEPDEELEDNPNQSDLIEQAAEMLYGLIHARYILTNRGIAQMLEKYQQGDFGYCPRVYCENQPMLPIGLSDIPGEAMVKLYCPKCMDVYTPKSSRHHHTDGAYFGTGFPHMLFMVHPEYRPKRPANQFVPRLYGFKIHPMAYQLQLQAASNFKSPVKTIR
- Sequence (P68400 whole entry, looked up): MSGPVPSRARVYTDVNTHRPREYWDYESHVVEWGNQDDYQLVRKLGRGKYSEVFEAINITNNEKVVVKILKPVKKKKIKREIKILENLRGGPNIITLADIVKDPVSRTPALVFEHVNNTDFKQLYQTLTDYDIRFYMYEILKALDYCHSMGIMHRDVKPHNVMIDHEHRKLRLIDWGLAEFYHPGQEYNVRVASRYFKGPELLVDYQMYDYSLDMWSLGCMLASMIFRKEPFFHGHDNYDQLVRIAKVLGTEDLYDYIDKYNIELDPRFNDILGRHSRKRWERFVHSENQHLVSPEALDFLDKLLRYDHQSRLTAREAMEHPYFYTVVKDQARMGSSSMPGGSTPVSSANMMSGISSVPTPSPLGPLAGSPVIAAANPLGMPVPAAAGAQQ
- MEASUREMENT_PARAMETERS: at 1 µM
- Description: Millipore: Percentage of residual kinase activity of CSNK2A1 at 1uM relative to control. Control inhibitor: Jnk Inhibitor II at 100.0uM. Buffer: 20 mM HEPES pH 7.6, 0.15 M NaCl, 0.1 mM EDTA, 5 mM DTT, 0.1% Triton X-100
List of residual activity values.

# MOLECULE, TEST_TARGET, RESULT_UNIT, residual activity
data = [
    ("O=c1cc(-c2cccc3c2Sc2ccccc2S3)oc(N2CCOCC2)c1", "Casein kinase II (Homo sapiens) (UniProt P67870+P68400+P19784)", "%", 106),
    ("CCOc1cc2ncnc(Nc3cccc(Br)c3)c2cc1OCC", "Casein kinase II (Homo sapiens) (UniProt P67870+P68400+P19784)", "%", 89),
    ("c1ccc(-c2n[nH]cc2-c2ccnc3ccccc23)nc1", "Casein kinase II (Homo sapiens) (UniProt P67870+P68400+P19784)", "%", 104),
    ("COc1ccc(OC)c2c(=S)c3ccccc3[nH]c12", "Casein kinase II (Homo sapiens) (UniProt P67870+P68400+P19784)", "%", 103),
    ("COc1ccc(C(=O)Nc2sc3c(c2C(N)=O)CCCC3)cc1OC", "Casein kinase II (Homo sapiens) (UniProt P67870+P68400+P19784)", "%", 95),
    ("Nc1n[nH]c2nnc(-c3c(-c4ccccc4)nn4ccccc34)cc12", "Casein kinase II (Homo sapiens) (UniProt P67870+P68400+P19784)", "%", 98),
    ("Nc1ccc2ncnc(NCCc3ccc(Oc4ccccc4)cc3)c2c1", "Casein kinase II (Homo sapiens) (UniProt P67870+P68400+P19784)", "%", 100),
    ("O=C1NC(=O)c2c1c1c3ccccc3[nH]c1c1[nH]c3cc(Br)ccc3c21", "Casein kinase II (Homo sapiens) (UniProt P67870+P68400+P19784)", "%", 104),
    ("N#CC(C#N)=C(N)/C(C#N)=C/c1ccc(O)cc1", "Casein kinase II (Homo sapiens) (UniProt P67870+P68400+P19784)", "%", 91),
    ("CN(C)CCCn1cc(C2=C(c3c[nH]c4ccccc34)C(=O)NC2=O)c2ccccc21", "Casein kinase II (Homo sapiens) (UniProt P67870+P68400+P19784)", "%", 107),
    ("Cn1cc(/C=C2\\C(=O)Nc3ccc(S(N)(=O)=O)cc32)c2ccccc21", "Casein kinase II (Homo sapiens) (UniProt P67870+P68400+P19784)", "%", 79),
    ("O=[N+]([O-])c1ccc(-c2nc(-c3ccc(F)cc3)c(-c3ccncc3)[nH]2)cc1", "Casein kinase II (Homo sapiens) (UniProt P67870+P68400+P19784)", "%", 100),
    ("O=c1c2ccccc2[nH]c(=S)n1CCN1CCC(=C(c2ccc(F)cc2)c2ccc(F)cc2)CC1", "Casein kinase II (Homo sapiens) (UniProt P67870+P68400+P19784)", "%", 89),
    ("Oc1c2ccccc2c2c3c(cccc13)N=N2", "Casein kinase II (Homo sapiens) (UniProt P67870+P68400+P19784)", "%", 60),
    ("CN(C)c1ccc(/C=C2\\C(=O)Nc3ccccc32)cc1", "Casein kinase II (Homo sapiens) (UniProt P67870+P68400+P19784)", "%", 87),
    ("Cc1cc(Nc2nc(-c3ccccc3)nc3ccccc23)n[nH]1", "Casein kinase II (Homo sapiens) (UniProt P67870+P68400+P19784)", "%", 43),
    ("O=C1Nc2ccccc2/C1=C1/Nc2ccccc2/C1=N\\OCCC(O)CO (configuration not stated)", "Casein kinase II (Homo sapiens) (UniProt P67870+P68400+P19784)", "%", 73),
    ("O=C1NC(=O)/C(=C/c2ccc3c(c2)OC(F)(F)O3)S1", "Casein kinase II (Homo sapiens) (UniProt P67870+P68400+P19784)", "%", 32),
    ("Oc1ccc(-c2nc(-c3ccc(F)cc3)c(-c3ccncc3)[nH]2)cc1", "Casein kinase II (Homo sapiens) (UniProt P67870+P68400+P19784)", "%", 107),
    ("Nc1cccc(-c2cc3c(Oc4cccc(O)c4)ncnc3[nH]2)c1", "Casein kinase II (Homo sapiens) (UniProt P67870+P68400+P19784)", "%", 101),
    ("O=C(Nc1cccc(Nc2nccc(Nc3cccc(C(F)(F)F)c3)n2)c1)C1CC1", "Casein kinase II (Homo sapiens) (UniProt P67870+P68400+P19784)", "%", 75),
    ("CC(=O)O/N=C1\\C(=C2\\C(=O)Nc3cc(Br)ccc32)Nc2ccccc21", "Casein kinase II (Homo sapiens) (UniProt P67870+P68400+P19784)", "%", 96),
]

====

- TEST_TARGET: CDK9/cyclin T1 (Homo sapiens) (UniProt O60563+P50750)
- MEASUREMENT_PARAMETERS: at 10 µM

# MOLECULE, RESULT_UNIT, residual activity
measured = [
    ("O=C1Nc2ccccc2/C1=C1/Nc2ccccc2/C1=N\\OCCC(O)CO (stereo unspecified)", "%", 7),
    ("CO[C@@H]1[C@H](N(C)C(=O)c2ccccc2)C[C@H]2O[C@]1(C)n1c3ccccc3c3c4c(c5c6ccccc6n2c5c31)C(=O)NC4", "%", 58),
    ("COc1cccc(-c2cc(=O)c3ccccc3o2)c1N", "%", 108),
    ("Cc1nc2cc3nc(-c4cccs4)cnc3cc2n1C", "%", 102),
    ("Oc1c2ccccc2c2c3c(cccc13)N=N2", "%", 55),
    ("CNc1cc2c(Nc3cccc(Br)c3)ncnc2cn1", "%", 86),
    ("COc1cc2ncnc(Nc3ccc(Oc4ccccc4)cc3)c2cc1OC", "%", 93),
    ("COc1ccc(OC)c2c(=S)c3ccccc3[nH]c12", "%", 83),
    ("NC(=O)c1ccc2[nH]c(-c3ccc(Oc4ccc(Cl)cc4)cc3)nc2c1", "%", 78),
    ("Oc1ccc(-c2nc(-c3ccc(F)cc3)c(-c3ccncc3)[nH]2)cc1", "%", 65),
    ("CCN(CC)C(=O)c1ccc(Nc2nc(OCC3CCCCC3)c3nc[nH]c3n2)cc1", "%", 8),
]
